- Tested on: APAE001 (ATCC27853)
- ASSAY: MIC broth microdilution, APAE001
- Type: cell-based, P. aeruginosa
- STATED_CONDITIONS: Pseudomonas aeruginosa, ATCC27853, read-out: MIC APAE001, APAE001 is ATCC27853
ATTRIBUTE_MEASURED: MIC

Input line: // lookup MIC for C[C@@H](N)[C@H](NC(=O)c1ccc(C#CC#Cc2ccc(CO)cc2)cc1)C(=O)NO
Output line: < 2 µg/mL

Input line: Any idea what its MIC is? The compound is CC(=O)NC[C@H](NC(=O)c1ccc(C#C/C=C/c2ccc(CN3CCOCC3)cc2)cc1)C(=O)NO
Output line: 2 to 16 µg/mL

Input line: For the compound shown here, C[C@@H](N)[C@H](NC(=O)c1ccc(C#CC#Cc2ccccc2Cl)cc1)C(=O)NO , give the reported MIC.
Output line: 2 to 16 µg/mL

Input line: Name the recorded MIC for C[C@@H](N)[C@H](NC(=O)c1ccc(C#Cc2ccc(CN3CCOCC3)cc2)cc1)C(=O)O .
Output line: > 64 µg/mL

Input line: I would be grateful if you could share the reported MIC for CC(C)(O)[C@H](NC(=O)c1ccc(C#CC#Cc2ccccc2)cc1)C(=O)NO .
Output line: < 2 µg/mL

Input line: Given the compound C[C@@H](O)[C@H](NC(=O)c1ccc(C#CC#Cc2ccc(CNC3CC3)cc2)cc1)C(=O)NO , what is its reported MIC?
Output line: < 2 µg/mL

Input line: Look at this compound and give its reported MIC. C[C@@H](N)[C@H](NC(=O)c1ccc(C#Cc2ccc(CNC(=N)N)cc2)cc1)C(=O)NO
Output line: 2 to 16 µg/mL

----------
- Test system: AECO001 (ATCC25922)
- ASSAY: MIC broth microdilution, AECO001
- Type: cell-based, E. coli
- STATED_CONDITIONS: Escherichia coli, ATCC25922, read-out: MIC AECO001
ATTRIBUTE_MEASURED: MIC

Input line: Which MIC is reported for this compound? C[C@@H](NC(=O)CNC1CC1)[C@H](NC(=O)c1ccc(C#Cc2ccc(CN3CCOCC3)cc2)cc1)C(=O)NO
Output line: < 2 µg/mL

Input line: Recorded MIC for C[C@@H](N)[C@H](NC(=O)c1ccc(C#CC#Cc2cncnc2)cc1)C(=O)NO , please?
Output line: 16 to 64 µg/mL

Input line: Sample CN(C)CC(=O)NC[C@H](NC(=O)c1ccc(C#C/C=C/c2ccc(CN3CCOCC3)cc2)cc1)C(=O)NO — what was its MIC?
Output line: < 2 µg/mL

Input line: Dear colleague, I am looking for the recorded MIC of the following compound: CC(C)(N)C(NC(=O)c1ccc(C#CC#Cc2ccncc2)cc1)C(=O)NO (stereo not shown)
Output line: < 2 µg/mL

----------
- Tested on: ASAU001 (laboratory strain of S. aureus, ATCC29213)
- ASSAY: MIC broth microdilution, ASAU001
- Type: cell-based
- STATED_CONDITIONS: Staphylococcus aureus, ATCC29213, read-out: MIC ASAU001
For each record, write down the corresponding MIC.

Input line: Would you mind telling me what MIC value was observed for C[C@@H](N)[C@H](NC(=O)c1ccc(C#Cc2ccc(CN3CCN(C)CC3)cc2)cc1)C(=O)NO [Example 115-4] ?
Output line: > 64 mg/L

Input line: Any idea what its MIC is? The molecule is CCC#CC#Cc1ccc(C(=O)N[C@H](C(=O)NO)[C@@H](C)N)cc1 [Example 91-7]
Output line: 2 to 16 mg/L

Input line: Given C[C@@H](NCC(=O)NC[C@H](NC(=O)c1ccc(C#C/C=C/c2ccccc2)cc1)C(=O)NO)c1ccccc1 [Example 105-4] , state its recorded MIC.
Output line: 16 to 64 mg/L

Input line: Which MIC reading was recorded for the molecule CC(C)(N)[C@H](NC(=O)c1ccc(C#C/C=C/c2ccccc2)cc1)C(=O)NO [Example 104-5] ?
Output line: 2 to 16 mg/L

All figures here come from patent US9617256B2.
